From: paper PMC7136958

Biological target: AhR (Homo sapiens, UniProt P35869)
Construct: endogenous in cells; host or cells: AZ-AHR (HepG2)
Sequence (P35869 11-848): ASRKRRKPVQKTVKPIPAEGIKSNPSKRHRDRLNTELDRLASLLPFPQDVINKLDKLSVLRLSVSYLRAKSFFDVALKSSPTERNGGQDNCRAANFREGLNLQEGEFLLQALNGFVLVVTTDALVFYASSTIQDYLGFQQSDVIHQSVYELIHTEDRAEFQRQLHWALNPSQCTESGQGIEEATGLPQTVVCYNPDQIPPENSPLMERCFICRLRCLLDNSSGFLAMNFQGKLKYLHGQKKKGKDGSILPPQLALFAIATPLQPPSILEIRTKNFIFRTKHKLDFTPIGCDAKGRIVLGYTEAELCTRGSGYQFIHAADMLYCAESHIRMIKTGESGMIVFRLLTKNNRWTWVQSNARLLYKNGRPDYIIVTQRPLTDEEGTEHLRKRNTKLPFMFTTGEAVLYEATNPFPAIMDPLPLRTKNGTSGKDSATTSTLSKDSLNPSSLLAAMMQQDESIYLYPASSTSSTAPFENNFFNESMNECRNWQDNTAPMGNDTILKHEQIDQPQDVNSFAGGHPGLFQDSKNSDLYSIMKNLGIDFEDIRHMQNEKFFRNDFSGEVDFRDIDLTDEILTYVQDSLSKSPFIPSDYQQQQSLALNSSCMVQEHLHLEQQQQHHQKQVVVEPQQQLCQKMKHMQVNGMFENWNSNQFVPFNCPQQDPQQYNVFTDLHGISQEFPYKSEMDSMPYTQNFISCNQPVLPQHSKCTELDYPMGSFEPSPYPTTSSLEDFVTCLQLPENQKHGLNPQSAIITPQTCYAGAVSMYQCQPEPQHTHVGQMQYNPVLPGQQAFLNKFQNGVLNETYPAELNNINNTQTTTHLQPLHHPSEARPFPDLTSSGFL
Test: AhR reporter assay, HepG2 cells stably expressing pCYP1A1 luciferase (AZ-AHR)
Assay type: cell-based
Conditions: AZ-AHR cells, 10 nM, fold vs DMSO
Recorded FOLD INDUCTION (AZ-AHR luciferase) for the following compounds
quantity_measured: FOLD INDUCTION (AZ-AHR luciferase) (fold)

> print(dat)
                                   compound                   quantity.measured  endpoint.unit  experimental.result
1  O=S(=O)(c1ccccc1)n1c(C(O)c2ccncc2)cc2ccccc21 (racemic) [FKK1]  FOLD INDUCTION (AZ-AHR luciferase)           fold                0.746
2  CCOCn1c(C(O)(Cc2cc3ccccc3[nH]2)c2ccncc2)cc2ccccc21 (racemic) [FKK9]  FOLD INDUCTION (AZ-AHR luciferase)           fold                  0.4
3  OC(Cc1cc2ccccc2[nH]1)(c1ccncc1)c1cc2ccccc2[nH]1 (stereo not drawn) [FKK10]  FOLD INDUCTION (AZ-AHR luciferase)           fold                0.318

###

Molecular target: AhR (Homo sapiens)
Construct: endogenous in cells; host or cells: AZ-AHR (HepG2)
Sequence (P35869 11-848): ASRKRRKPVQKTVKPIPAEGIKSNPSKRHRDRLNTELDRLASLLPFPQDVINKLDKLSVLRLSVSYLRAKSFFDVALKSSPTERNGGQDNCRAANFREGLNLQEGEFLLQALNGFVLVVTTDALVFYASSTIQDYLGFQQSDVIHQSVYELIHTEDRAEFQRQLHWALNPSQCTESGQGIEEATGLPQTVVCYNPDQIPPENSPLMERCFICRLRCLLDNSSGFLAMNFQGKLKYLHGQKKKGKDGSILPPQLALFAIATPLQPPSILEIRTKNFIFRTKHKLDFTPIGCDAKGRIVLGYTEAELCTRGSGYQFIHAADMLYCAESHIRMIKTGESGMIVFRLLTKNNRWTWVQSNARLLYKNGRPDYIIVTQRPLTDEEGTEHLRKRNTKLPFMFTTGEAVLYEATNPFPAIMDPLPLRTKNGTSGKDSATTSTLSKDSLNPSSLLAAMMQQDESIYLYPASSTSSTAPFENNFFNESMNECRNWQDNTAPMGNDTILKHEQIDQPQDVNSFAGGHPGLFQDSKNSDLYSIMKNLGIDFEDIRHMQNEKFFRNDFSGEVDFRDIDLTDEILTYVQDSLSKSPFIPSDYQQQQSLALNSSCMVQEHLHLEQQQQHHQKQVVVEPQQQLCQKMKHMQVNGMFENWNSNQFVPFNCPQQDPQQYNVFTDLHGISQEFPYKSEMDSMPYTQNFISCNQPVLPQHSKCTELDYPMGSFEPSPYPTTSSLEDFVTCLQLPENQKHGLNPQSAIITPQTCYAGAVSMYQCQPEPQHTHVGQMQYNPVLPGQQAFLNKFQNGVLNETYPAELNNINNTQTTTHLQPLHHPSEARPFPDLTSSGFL
Experiment: AhR reporter assay, HepG2 cells stably expressing pCYP1A1 luciferase (AZ-AHR)
Type: cell-based
Details: human; AZ-AHR cells, 1 nM, fold vs DMSO
Known fold induction at 24 h, 0.001 µM of a selection of compounds
quantity_measured: fold induction at 24 h, 0.001 µM

> print(dat)
                                   compound  experimental.result
1  C#CCC(O)(c1ccncc1)c1cc2ccccc2n1S(=O)(=O)c1ccccc1 (stereo not drawn)                  0.8
2  O=C(c1ccncc1)c1cc2ccccc2n1S(=O)(=O)c1ccccc1                0.755
3  Cc1[nH]c2ccccc2c1C(c1c(C)[nH]c2ccccc12)c1c(C)[nH]c2ccccc12 [FKK999, reference compound]                    1
